// reported GLuc Genotox LEC per item
Test system: human GADD45α gene promoter and regulatory element linked to Gaussia luciferase (GD532-GLuc) in TK6 cells
Experiment: GLuc genotoxicity assay: GLuc-T01 cells (TK6 with pEP-GD532-GLuc), 48 hour endpoint, without S9
Conditions: lowest test compound concentration that produces a relative GLuc induction greater than the 1.8 threshold
Reply numerically in µg/mL, unit not repeated.

// recorded GLuc Genotox LEC for CC[C@@]1(O)C(=O)OCc2c1cc1n(c2=O)Cc2cc3ccccc3nc2-1 : 0.08

// recorded GLuc Genotox LEC for O=c1[nH]cc(F)c(=O)[nH]1 : 0.63

// recorded GLuc Genotox LEC for C[C@@]1(CO)[C@H](O)CC[C@@]2(C)[C@H]1CC[C@H]1C[C@@H]3C[C@@]12CC[C@]3(O)CO : 0.13

// recorded GLuc Genotox LEC for CN(N=O)C(N)=O : 8.05

###

// reported GLuc Genotox LEC per item
Test system: human GADD45α gene promoter and regulatory element linked to Gaussia luciferase (GD532-GLuc) in TK6 cells
Assay: GLuc genotoxicity assay: GLuc-T01 cells (TK6 with pEP-GD532-GLuc), 48 hour endpoint, without S9
Details: human, 48 h

compound	GLuc Genotox LEC
CCc1nc(N)nc(N)c1-c1ccc(Cl)cc1 [Pyrimethamine]	0.39 µg/mL

// recorded GLuc Genotox LEC for CC[C@]1(O)C[C@H]2CN(CCc3c([nH]c4ccccc34)[C@@](C(=O)OC)(c3cc4c(cc3OC)N(C=O)[C@H]3[C@@](O)(C(=O)OC)[C@H](OC(C)=O)[C@]5(CC)C=CCN6CC[C@]43[C@@H]65)C2)C1 [Vincristine Sulphate] : 0.0008 µg/mL

// recorded GLuc Genotox LEC for CCCCNC(=O)n1c(NC(=O)OC)nc2ccccc21 [Benomyl] : 1.81 µg/mL

// recorded GLuc Genotox LEC for Nc1ncn([C@@H]2O[C@H](CO)[C@@H](O)[C@H]2O)c(=O)n1 [5-Azacytidine] : 0.38 µg/mL

// recorded GLuc Genotox LEC for OO [Hydrogen Peroxide] : 5.00 µg/mL

// recorded GLuc Genotox LEC for COS(C)(=O)=O [Methyl methanesulfonate] : 6.25 µg/mL

// recorded GLuc Genotox LEC for NC(=O)NO [Hydroxyurea] : 4.75 µg/mL

// recorded GLuc Genotox LEC for CC(=O)O[C@H]1C(=O)[C@@]2(C)[C@H]([C@H](OC(=O)c3ccccc3)[C@]3(O)C[C@H](OC(=O)[C@H](O)[C@@H](NC(=O)c4ccccc4)c4ccccc4)C(C)=C1C3(C)C)[C@]1(OC(C)=O)CO[C@@H]1C[C@@H]2O [Paclitaxel (Taxol), Paclitaxel] : 0.03 µg/mL

Values from patent US20120035079A1
